Measured composite z-score, listed per entry for reference.
Molecular target: Neurogenic locus notch homolog protein 2 (Homo sapiens) (UniProt Q04721)
Sequence (Q04721 whole entry, looked up): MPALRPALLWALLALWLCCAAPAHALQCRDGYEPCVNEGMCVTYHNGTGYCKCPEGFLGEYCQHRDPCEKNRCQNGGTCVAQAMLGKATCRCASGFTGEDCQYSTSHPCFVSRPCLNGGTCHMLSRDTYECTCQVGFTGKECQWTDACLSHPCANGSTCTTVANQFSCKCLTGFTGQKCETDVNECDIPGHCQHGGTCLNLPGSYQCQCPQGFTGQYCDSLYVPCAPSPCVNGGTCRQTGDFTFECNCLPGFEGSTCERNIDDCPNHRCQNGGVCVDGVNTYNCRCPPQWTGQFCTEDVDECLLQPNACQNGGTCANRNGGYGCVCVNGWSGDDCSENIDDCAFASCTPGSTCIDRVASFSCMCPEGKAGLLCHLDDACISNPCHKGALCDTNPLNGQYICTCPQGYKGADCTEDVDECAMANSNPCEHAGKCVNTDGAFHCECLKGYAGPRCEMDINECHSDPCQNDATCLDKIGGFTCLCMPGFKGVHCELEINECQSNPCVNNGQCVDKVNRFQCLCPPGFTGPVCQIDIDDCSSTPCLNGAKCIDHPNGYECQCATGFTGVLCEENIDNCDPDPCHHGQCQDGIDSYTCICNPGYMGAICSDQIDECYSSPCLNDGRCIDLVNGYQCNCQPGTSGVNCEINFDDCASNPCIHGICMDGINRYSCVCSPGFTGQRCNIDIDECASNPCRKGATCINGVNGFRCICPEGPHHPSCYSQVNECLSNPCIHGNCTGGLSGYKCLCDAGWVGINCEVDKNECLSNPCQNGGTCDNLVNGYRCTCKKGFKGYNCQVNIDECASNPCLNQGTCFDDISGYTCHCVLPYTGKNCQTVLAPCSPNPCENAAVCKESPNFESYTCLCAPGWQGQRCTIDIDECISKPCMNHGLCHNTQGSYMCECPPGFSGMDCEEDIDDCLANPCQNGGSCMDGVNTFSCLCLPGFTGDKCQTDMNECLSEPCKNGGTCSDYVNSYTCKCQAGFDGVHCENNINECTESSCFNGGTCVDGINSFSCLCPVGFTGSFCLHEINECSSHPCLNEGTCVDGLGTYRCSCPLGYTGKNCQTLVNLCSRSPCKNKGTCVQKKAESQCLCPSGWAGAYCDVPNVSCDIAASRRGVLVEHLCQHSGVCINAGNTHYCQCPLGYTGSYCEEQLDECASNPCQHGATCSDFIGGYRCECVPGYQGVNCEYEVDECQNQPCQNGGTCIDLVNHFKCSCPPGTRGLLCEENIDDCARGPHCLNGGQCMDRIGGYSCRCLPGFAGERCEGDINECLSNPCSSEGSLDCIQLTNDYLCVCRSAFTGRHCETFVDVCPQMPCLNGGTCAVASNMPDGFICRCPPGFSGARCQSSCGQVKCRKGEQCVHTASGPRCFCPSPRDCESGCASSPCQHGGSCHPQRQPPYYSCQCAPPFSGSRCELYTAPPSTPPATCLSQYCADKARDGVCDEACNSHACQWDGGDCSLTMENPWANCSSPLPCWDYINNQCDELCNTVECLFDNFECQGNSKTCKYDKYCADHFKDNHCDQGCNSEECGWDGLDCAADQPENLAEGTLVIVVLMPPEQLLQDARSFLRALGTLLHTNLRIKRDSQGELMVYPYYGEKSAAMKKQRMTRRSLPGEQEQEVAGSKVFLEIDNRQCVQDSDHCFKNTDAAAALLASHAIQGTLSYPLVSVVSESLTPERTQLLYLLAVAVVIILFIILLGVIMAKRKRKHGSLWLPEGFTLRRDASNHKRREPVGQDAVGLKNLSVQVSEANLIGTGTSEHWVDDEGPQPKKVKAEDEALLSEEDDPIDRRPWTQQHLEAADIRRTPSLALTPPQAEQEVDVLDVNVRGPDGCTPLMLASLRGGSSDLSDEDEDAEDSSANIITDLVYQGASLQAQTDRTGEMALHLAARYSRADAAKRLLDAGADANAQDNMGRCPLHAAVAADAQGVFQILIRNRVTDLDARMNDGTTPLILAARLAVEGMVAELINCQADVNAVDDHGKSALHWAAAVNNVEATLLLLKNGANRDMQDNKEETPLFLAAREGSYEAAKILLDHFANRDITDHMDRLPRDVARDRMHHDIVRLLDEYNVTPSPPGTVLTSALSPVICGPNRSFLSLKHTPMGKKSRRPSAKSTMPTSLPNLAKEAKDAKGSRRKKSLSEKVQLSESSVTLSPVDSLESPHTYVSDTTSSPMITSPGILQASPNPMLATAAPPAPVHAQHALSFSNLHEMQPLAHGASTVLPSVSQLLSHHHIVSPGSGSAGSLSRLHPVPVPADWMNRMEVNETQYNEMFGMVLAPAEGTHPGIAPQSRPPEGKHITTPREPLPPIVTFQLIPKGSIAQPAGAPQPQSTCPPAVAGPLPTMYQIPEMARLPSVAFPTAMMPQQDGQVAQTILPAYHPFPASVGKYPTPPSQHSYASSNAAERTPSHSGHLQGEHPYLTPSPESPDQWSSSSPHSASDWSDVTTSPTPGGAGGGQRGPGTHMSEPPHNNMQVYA
Assay: Notch2 binders on small-molecule microarrays, primary screen, biochemical, small-molecule microarray, 635 nm fluorescence, stem cell growth factors (AID 1073)
Conditions: Notch2 binding, higher = more signal
ENDPOINT_NAME: composite z-score

{"COMPOUND": "CC(C)CNC(=O)[C@@]1(C)c2ccccc2C(=O)N(Cc2cc(C(F)(F)F)cc(C(F)(F)F)c2)[C@H]1c1ccc(CO)cc1", "MEASURED_TARGET": "Neurogenic locus notch homolog protein 2 (Homo sapiens) (UniProt Q04721)", "TEST_VALUE": -0.474}
{"COMPOUND": "COc1cc(CO)cc(I)c1O[C@H]1C=C(C(=O)NCCO)C[C@@H](NCC2CCCCC2)[C@@H]1O", "MEASURED_TARGET": "Neurogenic locus notch homolog protein 2 (Homo sapiens) (UniProt Q04721)", "TEST_VALUE": 0.481}
{"COMPOUND": "COc1ccc(C(O)C2C=CC3C(=O)N(c4ccccc4)C(=O)C3N2Nc2ccccc2F)cc1 (centres undefined)", "MEASURED_TARGET": "Neurogenic locus notch homolog protein 2 (Homo sapiens) (UniProt Q04721)", "TEST_VALUE": 1.4}
{"COMPOUND": "CS(=O)(=O)CCOC(=O)C1=CC(CCCO)=CC(C2CC2)N(Cc2cccc(OC(F)(F)F)c2)C=C1C(=O)OCCS(C)(=O)=O (centres undefined)", "MEASURED_TARGET": "Neurogenic locus notch homolog protein 2 (Homo sapiens) (UniProt Q04721)", "TEST_VALUE": -0.116}
{"COMPOUND": "O=C1O[C@H](c2ccccc2)[C@H](c2ccccc2)N2[C@H]1[C@@H](C(=O)O)[C@]1(C(=O)Nc3ccc(C#CC4(O)CCCCCC4)cc31)[C@H]2c1ccc(O)cc1", "MEASURED_TARGET": "Neurogenic locus notch homolog protein 2 (Homo sapiens) (UniProt Q04721)", "TEST_VALUE": -0.0475}
{"COMPOUND": "CC(C)C[C@@H]1NC(=O)CNC(=O)[C@@]23C(=O)N[C@@H](Cc4ccccc4)C2[C@H](C)[C@@]2(C)O[C@H]2C3/C=C/C/C=C\\CNC1=O (some centres undefined)", "MEASURED_TARGET": "Neurogenic locus notch homolog protein 2 (Homo sapiens) (UniProt Q04721)", "TEST_VALUE": 0.429}
{"COMPOUND": "COc1cc(NN2C(C(O)c3ccc(I)cc3)C=CC3C(=O)N(c4ccccc4)C(=O)C32)cc(OC)c1OC (centres undefined)", "MEASURED_TARGET": "Neurogenic locus notch homolog protein 2 (Homo sapiens) (UniProt Q04721)", "TEST_VALUE": 1.55}
{"COMPOUND": "C=C(/C(=C/C[C@@H](OC(C)=O)c1ccc(CO)o1)c1cc(C(=O)OC)ccc1OC)C(C)C", "MEASURED_TARGET": "Neurogenic locus notch homolog protein 2 (Homo sapiens) (UniProt Q04721)", "TEST_VALUE": 1.18}
{"COMPOUND": "Cc1cccc([C@H]2C[C@H]3C(Br)=C[C@@H]2C(=O)[C@]32CO2)c1", "MEASURED_TARGET": "Neurogenic locus notch homolog protein 2 (Homo sapiens) (UniProt Q04721)", "TEST_VALUE": -0.0632}
{"COMPOUND": "C=CCC(OC(C)=O)[C@@H]1[C@@H](N(Cc2ccc(-c3cccc(C(F)(F)F)c3)o2)C(=O)c2ccc(C)cc2)c2cc(OCCCO)ccc2N1C(=O)Cc1ccc(OC)cc1 (some centres undefined)", "MEASURED_TARGET": "Neurogenic locus notch homolog protein 2 (Homo sapiens) (UniProt Q04721)", "TEST_VALUE": -0.489}
{"COMPOUND": "CC(=O)NCCCC[C@@H]1NC(=O)[C@H]2C[C@@H](C(=O)NCCCCCNC(=O)CS)[C@@H](c3cccc(OCCO)c3)N2C1=O", "MEASURED_TARGET": "Neurogenic locus notch homolog protein 2 (Homo sapiens) (UniProt Q04721)", "TEST_VALUE": -0.544}
{"COMPOUND": "CC(C)CNC(=O)[C@@]1(c2ccc([N+](=O)[O-])cc2)CC(=O)N(C2CCCCC2)[C@@H]1c1ccc(CO)cc1", "MEASURED_TARGET": "Neurogenic locus notch homolog protein 2 (Homo sapiens) (UniProt Q04721)", "TEST_VALUE": 0.554}
{"COMPOUND": "CCCC=C(CCC)[C@@H](NS(=O)(=O)c1cccc2cccnc12)c1ccc(-c2ccccc2)cc1", "MEASURED_TARGET": "Neurogenic locus notch homolog protein 2 (Homo sapiens) (UniProt Q04721)", "TEST_VALUE": 1.66}
{"COMPOUND": "C[C@]1(C(=O)NCCN2CCOCC2)c2ccccc2C(=O)N(Cc2cc(F)cc(C(F)(F)F)c2)[C@H]1c1ccc(CO)cc1", "MEASURED_TARGET": "Neurogenic locus notch homolog protein 2 (Homo sapiens) (UniProt Q04721)", "TEST_VALUE": -0.387}
{"COMPOUND": "C=C(COC)C(=O)CC[C@@H](OC(=O)c1cccnc1)c1ccccc1OCCO", "MEASURED_TARGET": "Neurogenic locus notch homolog protein 2 (Homo sapiens) (UniProt Q04721)", "TEST_VALUE": -0.427}
{"COMPOUND": "CN(C)C(=O)[C@]1(CCS(=O)(=O)c2ccccc2)N=C(c2ccc(OCCCO)cc2)O[C@@H]1c1ccccc1", "MEASURED_TARGET": "Neurogenic locus notch homolog protein 2 (Homo sapiens) (UniProt Q04721)", "TEST_VALUE": 1.58}
{"COMPOUND": "C=C(COC)/C(=C/C[C@@H](OC(C)=O)c1ccc(CO)o1)c1cc(C(=O)OC)ccc1OC", "MEASURED_TARGET": "Neurogenic locus notch homolog protein 2 (Homo sapiens) (UniProt Q04721)", "TEST_VALUE": -0.378}
{"COMPOUND": "CN1C(=O)C2C(C1=O)C1C=C(CCCO)C2C(c2cccs2)N1Cc1cc2c(cc1Br)OCO2 (centres undefined)", "MEASURED_TARGET": "Neurogenic locus notch homolog protein 2 (Homo sapiens) (UniProt Q04721)", "TEST_VALUE": 1.62}
{"COMPOUND": "CCOC(=O)C[C@H]1[C@H](OC(=O)c2ccccc2-c2ccccc2)[C@@H](NC(=O)c2ccccc2)c2cc(OCCCO)ccc2N1C(=O)c1ccccc1", "MEASURED_TARGET": "Neurogenic locus notch homolog protein 2 (Homo sapiens) (UniProt Q04721)", "TEST_VALUE": 0.494}
{"COMPOUND": "O=C1N(CCS(=O)(=O)c2ccccc2)Cc2ccccc2[C@@H]2OC(c3ccc(OCCCO)cc3)=N[C@]12CCS(=O)(=O)c1ccccc1", "MEASURED_TARGET": "Neurogenic locus notch homolog protein 2 (Homo sapiens) (UniProt Q04721)", "TEST_VALUE": 1.66}
{"COMPOUND": "COc1ccc([Si](C)(C)[C@@H]2[C@@H](CC(=O)N3Cc4ccccc4C[C@H]3CO)O[C@]3(C(=O)N(Cc4ccc(N5CCC5=O)cc4)c4ccccc43)[C@H]2C)cc1", "MEASURED_TARGET": "Neurogenic locus notch homolog protein 2 (Homo sapiens) (UniProt Q04721)", "TEST_VALUE": 0.291}
{"COMPOUND": "C=C(CCCC)C(=O)CC[C@H](OC(C)=O)c1ccc(OCCO)cc1", "MEASURED_TARGET": "Neurogenic locus notch homolog protein 2 (Homo sapiens) (UniProt Q04721)", "TEST_VALUE": -0.989}
{"COMPOUND": "C=CCNC(=O)[C@H]1[C@@H]2C(=O)O[C@@H](c3ccccc3)[C@@H](c3ccccc3)N2[C@@H](c2ccc(OCCO)cc2)[C@]12C(=O)N(C(=O)OCCOC)c1ccc(C#Cc3ccc(OC)cc3)cc12", "MEASURED_TARGET": "Neurogenic locus notch homolog protein 2 (Homo sapiens) (UniProt Q04721)", "TEST_VALUE": 0.897}
{"COMPOUND": "CN1C(=O)C2C=CC(C(O)c3cc(C(F)(F)F)cc(C(F)(F)F)c3)N(NC(=O)OC(C)(C)C)C2C1=O (centres undefined)", "MEASURED_TARGET": "Neurogenic locus notch homolog protein 2 (Homo sapiens) (UniProt Q04721)", "TEST_VALUE": 1.67}
{"COMPOUND": "C=CCC(OC(C)=O)[C@@H]1[C@@H](N(Cc2ccc(-c3ccccc3)cc2)C(=O)c2ccc(C)cc2)c2cc(OCCCO)ccc2N1C(=O)Cc1ccc2ccccc2c1 (some centres undefined)", "MEASURED_TARGET": "Neurogenic locus notch homolog protein 2 (Homo sapiens) (UniProt Q04721)", "TEST_VALUE": 0.0573}
{"COMPOUND": "COc1cc2c(cc1OC)CN(C(=O)[C@@H]1[C@H]3C(=O)O[C@H](c4ccccc4)[C@H](c4ccccc4)N3[C@H](c3ccc(O)cc3)[C@@]13C(=O)Nc1ccc(C#CCCO)cc13)CC2", "MEASURED_TARGET": "Neurogenic locus notch homolog protein 2 (Homo sapiens) (UniProt Q04721)", "TEST_VALUE": 0.711}
{"COMPOUND": "CCOC(=O)C=Cc1ccccc1O", "MEASURED_TARGET": "Neurogenic locus notch homolog protein 2 (Homo sapiens) (UniProt Q04721)", "TEST_VALUE": 0.578}
{"COMPOUND": "COc1ccc([Si](C)(C)[C@H]2[C@H](CCO)O[C@@]3(C(=O)N(Cc4ccccc4)c4ccc(N5C(=O)c6ccccc6Oc6ccccc65)cc43)[C@@H]2C)cc1", "MEASURED_TARGET": "Neurogenic locus notch homolog protein 2 (Homo sapiens) (UniProt Q04721)", "TEST_VALUE": -0.0653}
{"COMPOUND": "C=C(COC)/C(=C/C[C@@H](OC(=O)c1ccncc1)c1ccccc1OCCO)c1cc(C(=O)OC)ccc1OC", "MEASURED_TARGET": "Neurogenic locus notch homolog protein 2 (Homo sapiens) (UniProt Q04721)", "TEST_VALUE": -0.381}
